# assay.method.text: Oral bioavailability in ICR mouse at 10 mg/kg by LC-MS/MS analysis
# Type: ADME, organism-based
# run.conditions: in vivo

| item.smiles | bioavailability |
| --- | --- |
| C=CC(=O)Nc1cccc(-n2c(=O)n(C(C)C)c(=O)c3cnc(Nc4ccc(N5CCN(C)CC5)cc4OC)nc32)c1 | 35% |

---

# Species: Homo sapiens
# assay.method.text: Selectivity ratio of IC50 for recombinant human GST-tagged EGFR (668 to 1210 residues) expressed in baculovirus expression system to IC50 for recombinant human GST-tagged EGFR L858R/T790M double mutant expressed in baculovirus expression system
// map Ratio IC50 onto a label; ranges group A = under 4, group B = from 4 up to 20, group C = 20 and over

| item.smiles | category.label |
| --- | --- |
| C=CC(=O)Nc1cccc(-n2c(=O)n(C)c(=O)c3cnc(Nc4ccc(N5CCSCC5)cc4OC)nc32)c1 | group A |
| C=CC(=O)Nc1cccc(-n2c(=O)n(C(C)C)c(=O)c3cnc(Nc4ccc(N5CCN(C)CC5)cc4OC)nc32)c1 | group C |
| C=CC(=O)Nc1cccc(-n2c(=O)n(CCC)c(=O)c3cnc(Nc4ccc(N5CCC(N(C)C)CC5)cc4OC)nc32)c1 | group C |
| C=CC(=O)Nc1cccc(-n2c(=O)n(CCCc3ccccc3)c(=O)c3cnc(Nc4ccc(N5CCC(N(C)C)CC5)cc4OC)nc32)c1 | group A |
| C=CC(=O)Nc1cccc(-n2c(=O)n(Cc3ccccc3)c(=O)c3cnc(Nc4ccc(N5CCC(N(C)C)CC5)cc4OC)nc32)c1 | group A |
| C=CC(=O)Nc1cccc(-n2c(=O)n(C(C)C)c(=O)c3cnc(Nc4ccc(N5CCN(C)CC5)c(OC)c4)nc32)c1 | group B |
| C=CC(=O)Nc1cccc(-n2c(=O)n(C)c(=O)c3cnc(Nc4ccc(N5CCOCC5)cc4OC)nc32)c1 | group B |
| C=CC(=O)Nc1cccc(-n2c(=O)n(CCc3ccccc3)c(=O)c3cnc(Nc4ccc(N5CCC(N(C)C)CC5)cc4OC)nc32)c1 | group A |
| C=CC(=O)Nc1cccc(-n2c(=O)n(CC)c(=O)c3cnc(Nc4ccc(N5CCC(N(C)C)CC5)cc4OC)nc32)c1 | group C |
| C=CC(=O)Nc1cccc(-n2c(=O)n(C(C)C)c(=O)c3cnc(Nc4ccc(N(C)CCN(C)C)cc4OC)nc32)c1 | group B |
| C=CC(=O)Nc1cccc(-n2c(=O)n(C(C)C)c(=O)c3cnc(Nc4ccc(N5CCC(N6CCN(C)CC6)CC5)cc4OC)nc32)c1 | group B |
| C=CC(=O)Nc1cccc(-n2c(=O)n(C(C)C)c(=O)c3cnc(Nc4ccc(N5CCC(N(C)C)CC5)cc4OC)nc32)c1 | group C |
| C=CC(=O)Nc1cccc(-n2c(=O)n(C(C)C)c(=O)c3cnc(Nc4ccc(N5CCN(C)CC5)c(C)c4)nc32)c1 | group C |
| C=CC(=O)Nc1cccc(-n2c(=O)n(C(C)C)c(=O)c3cnc(Nc4ccc(OCCN(C)C)cc4OC)nc32)c1 | group A |
| C=CC(=O)Nc1cccc(-n2c(=O)n(C)c(=O)c3cnc(Nc4ccccc4)nc32)c1 | group A |

---

# assay.method.text: Clearance in ICR mouse at 1 mg/kg, iv by LC-MS/MS analysis
# Assay type: ADME, organism-based
# run.conditions: in vivo

| item.smiles | measure.unit | clearance |
| --- | --- | --- |
| C=CC(=O)Nc1cccc(-n2c(=O)n(C(C)C)c(=O)c3cnc(Nc4ccc(N5CCN(C)CC5)cc4OC)nc32)c1 | L/h/kg | 5.37 |

---

# assay.method.text: Half life in mouse liver microsomes at 0.1 uM after 60 mins in presence of NADPH by LC-MS/MS analysis
# Type: ADME, microsome

| item.smiles | measure.unit | half-life at 0.1 µM |
| --- | --- | --- |
| C=CC(=O)Nc1cccc(-n2c(=O)n(C(C)C)c(=O)c3cnc(Nc4ccc(N5CCN(C)CC5)cc4OC)nc32)c1 | min | 46.1 |

---

# system: Epidermal growth factor receptor (Homo sapiens, UniProt P00533)
# Sequence (P00533 whole entry, the tested form may be a part): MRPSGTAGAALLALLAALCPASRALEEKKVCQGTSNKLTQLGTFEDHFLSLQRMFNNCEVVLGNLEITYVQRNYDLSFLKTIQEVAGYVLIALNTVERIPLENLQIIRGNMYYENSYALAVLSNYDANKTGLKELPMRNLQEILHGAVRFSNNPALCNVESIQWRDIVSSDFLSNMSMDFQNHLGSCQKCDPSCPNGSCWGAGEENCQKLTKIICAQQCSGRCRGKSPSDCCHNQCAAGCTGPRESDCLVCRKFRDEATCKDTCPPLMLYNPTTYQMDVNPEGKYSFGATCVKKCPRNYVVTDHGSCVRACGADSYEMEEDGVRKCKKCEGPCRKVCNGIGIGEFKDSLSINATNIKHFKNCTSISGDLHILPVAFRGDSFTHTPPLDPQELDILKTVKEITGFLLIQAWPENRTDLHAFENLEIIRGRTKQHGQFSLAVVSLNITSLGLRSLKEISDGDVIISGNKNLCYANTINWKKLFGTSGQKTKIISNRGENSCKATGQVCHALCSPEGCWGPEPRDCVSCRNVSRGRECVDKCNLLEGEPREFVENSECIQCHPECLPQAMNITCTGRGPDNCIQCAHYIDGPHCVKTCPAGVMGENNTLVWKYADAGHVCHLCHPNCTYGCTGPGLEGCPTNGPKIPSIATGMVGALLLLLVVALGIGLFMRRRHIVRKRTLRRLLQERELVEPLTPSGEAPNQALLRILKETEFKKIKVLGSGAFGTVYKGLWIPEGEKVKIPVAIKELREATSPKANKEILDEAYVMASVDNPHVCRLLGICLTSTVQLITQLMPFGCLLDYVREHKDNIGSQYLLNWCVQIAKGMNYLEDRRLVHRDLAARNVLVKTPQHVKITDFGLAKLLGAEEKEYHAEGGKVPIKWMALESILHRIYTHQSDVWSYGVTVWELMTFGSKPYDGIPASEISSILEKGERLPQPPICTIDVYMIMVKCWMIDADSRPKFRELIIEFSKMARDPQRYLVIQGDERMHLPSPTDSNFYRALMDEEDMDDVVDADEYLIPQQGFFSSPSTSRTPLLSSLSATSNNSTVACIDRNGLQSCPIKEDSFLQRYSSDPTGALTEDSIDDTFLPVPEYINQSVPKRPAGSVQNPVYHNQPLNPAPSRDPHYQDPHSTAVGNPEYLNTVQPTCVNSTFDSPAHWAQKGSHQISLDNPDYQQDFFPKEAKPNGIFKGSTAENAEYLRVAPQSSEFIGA
# assay.method.text: Inhibition of recombinant human GST-tagged EGFR (668 to 1210 residues) expressed in baculovirus expression system using Poly(Glu,Tyr)4:1 as substrate after 1 hr by ELISA
pIC50: −log10 of the molar value.
Each record here notes measured pIC50.

| item.smiles | pIC50 |
| --- | --- |
| C=CC(=O)Nc1cccc(-n2c(=O)n(C(C)C)c(=O)c3cnc(Nc4ccc(N5CCN(C)CC5)c(OC)c4)nc32)c1 | 6.92 |
| C=CC(=O)Nc1cccc(-n2c(=O)n(C)c(=O)c3cnc(Nc4ccc(N5CCOCC5)cc4OC)nc32)c1 | 6.47 |
| C=CC(=O)Nc1cccc(-n2c(=O)n(C)c(=O)c3cnc(Nc4ccccc4)nc32)c1 | 7.09 |
| C=CC(=O)Nc1cccc(-n2c(=O)n(C)c(=O)c3cnc(Nc4ccc(N5CCN(C(C)=O)CC5)cc4OC)nc32)c1 | 6.74 |
| C=CC(=O)Nc1cccc(-n2c(=O)n(CC)c(=O)c3cnc(Nc4ccc(N5CCC(N(C)C)CC5)cc4OC)nc32)c1 | 6.95 |
| C=CC(=O)Nc1cccc(-n2c(=O)n(C(C)C)c(=O)c3cnc(Nc4ccc(N5CCC(N(C)C)CC5)cc4OC)nc32)c1 | 7.70 |
| C=CC(=O)Nc1cccc(-n2c(=O)n(CCC)c(=O)c3cnc(Nc4ccc(N5CCC(N(C)C)CC5)cc4OC)nc32)c1 | 7.89 |
| C=CC(=O)Nc1cccc(-n2c(=O)n(C(C)C)c(=O)c3cnc(Nc4ccc(OCCN(C)C)cc4OC)nc32)c1 | 6.64 |
| C=CC(=O)Nc1cccc(-n2c(=O)n(C(C)C)c(=O)c3cnc(Nc4ccc(N5CCN(C)CC5)c(C)c4)nc32)c1 | 7.47 |
| C=CC(=O)Nc1cccc(-n2c(=O)n(CCCc3ccccc3)c(=O)c3cnc(Nc4ccc(N5CCC(N(C)C)CC5)cc4OC)nc32)c1 | 8.42 |
| C=CC(=O)Nc1cccc(-n2c(=O)n(C(C)C)c(=O)c3cnc(Nc4ccc(N5CCC(N6CCN(C)CC6)CC5)cc4OC)nc32)c1 | 6.62 |
| C=CC(=O)Nc1cccc(-n2c(=O)n(Cc3ccccc3)c(=O)c3cnc(Nc4ccc(N5CCC(N(C)C)CC5)cc4OC)nc32)c1 | 8.92 |
| C=CC(=O)Nc1cccc(-n2c(=O)n(C)c(=O)c3cnc(Nc4ccc(N5CCSCC5)cc4OC)nc32)c1 | 6.50 |
| C=CC(=O)Nc1cccc(-n2c(=O)n(CCc3ccccc3)c(=O)c3cnc(Nc4ccc(N5CCC(N(C)C)CC5)cc4OC)nc32)c1 | 9.15 |
| C=CC(=O)Nc1cccc(-n2c(=O)n(C(C)C)c(=O)c3cnc(Nc4ccc(N5CCN(C)CC5)cc4OC)nc32)c1 | 7.10 |
| C=CC(=O)Nc1cccc(-n2c(=O)n(C(C)C)c(=O)c3cnc(Nc4ccc(N(C)CCN(C)C)cc4OC)nc32)c1 | 6.92 |

---

Each record here notes measured log10 of solubility.
# assay.method.text: Aqueous solubility in pH 7.4 PBS buffer by UV-Visible spectrophotometric method
# Assay type: physicochemical
readout.label: log10 of solubility (log10 of the value in µg/mL)

| item.smiles | test.value |
| --- | --- |
| C=CC(=O)Nc1cccc(-n2c(=O)n(CCCc3ccccc3)c(=O)c3cnc(Nc4ccc(N5CCC(N(C)C)CC5)cc4OC)nc32)c1 | 2.02 |
| C=CC(=O)Nc1cccc(-n2c(=O)n(C(C)C)c(=O)c3cnc(Nc4ccc(OCCN(C)C)cc4OC)nc32)c1 | 2.81 |
| C=CC(=O)Nc1cccc(-n2c(=O)n(C(C)C)c(=O)c3cnc(Nc4ccc(N5CCC(N(C)C)CC5)cc4OC)nc32)c1 | 2.25 |
| C=CC(=O)Nc1cccc(-n2c(=O)n(CCC)c(=O)c3cnc(Nc4ccc(N5CCC(N(C)C)CC5)cc4OC)nc32)c1 | 2.26 |
| C=CC(=O)Nc1cccc(-n2c(=O)n(C(C)C)c(=O)c3cnc(Nc4ccc(N5CCN(C)CC5)c(OC)c4)nc32)c1 | 2.49 |
| C=CC(=O)Nc1cccc(-n2c(=O)n(C)c(=O)c3cnc(Nc4ccc(N5CCSCC5)cc4OC)nc32)c1 | 1.65 |
| C=CC(=O)Nc1cccc(-n2c(=O)n(C(C)C)c(=O)c3cnc(Nc4ccc(N5CCC(N6CCN(C)CC6)CC5)cc4OC)nc32)c1 | 2.08 |

---

# assay.method.text: Half life in ICR mouse at 10 mg/kg, po by LC-MS/MS analysis
# Assay type: ADME, organism-based
# run.conditions: in vivo

| item.smiles | half-life |
| --- | --- |
| C=CC(=O)Nc1cccc(-n2c(=O)n(C(C)C)c(=O)c3cnc(Nc4ccc(N5CCN(C)CC5)cc4OC)nc32)c1 | 66 min |
